- Measurement Target: PI3K delta (Homo sapiens (Human))
- Sequence (O00329 other isoform, or with tags, fused parts or gaps linker GGGGGG): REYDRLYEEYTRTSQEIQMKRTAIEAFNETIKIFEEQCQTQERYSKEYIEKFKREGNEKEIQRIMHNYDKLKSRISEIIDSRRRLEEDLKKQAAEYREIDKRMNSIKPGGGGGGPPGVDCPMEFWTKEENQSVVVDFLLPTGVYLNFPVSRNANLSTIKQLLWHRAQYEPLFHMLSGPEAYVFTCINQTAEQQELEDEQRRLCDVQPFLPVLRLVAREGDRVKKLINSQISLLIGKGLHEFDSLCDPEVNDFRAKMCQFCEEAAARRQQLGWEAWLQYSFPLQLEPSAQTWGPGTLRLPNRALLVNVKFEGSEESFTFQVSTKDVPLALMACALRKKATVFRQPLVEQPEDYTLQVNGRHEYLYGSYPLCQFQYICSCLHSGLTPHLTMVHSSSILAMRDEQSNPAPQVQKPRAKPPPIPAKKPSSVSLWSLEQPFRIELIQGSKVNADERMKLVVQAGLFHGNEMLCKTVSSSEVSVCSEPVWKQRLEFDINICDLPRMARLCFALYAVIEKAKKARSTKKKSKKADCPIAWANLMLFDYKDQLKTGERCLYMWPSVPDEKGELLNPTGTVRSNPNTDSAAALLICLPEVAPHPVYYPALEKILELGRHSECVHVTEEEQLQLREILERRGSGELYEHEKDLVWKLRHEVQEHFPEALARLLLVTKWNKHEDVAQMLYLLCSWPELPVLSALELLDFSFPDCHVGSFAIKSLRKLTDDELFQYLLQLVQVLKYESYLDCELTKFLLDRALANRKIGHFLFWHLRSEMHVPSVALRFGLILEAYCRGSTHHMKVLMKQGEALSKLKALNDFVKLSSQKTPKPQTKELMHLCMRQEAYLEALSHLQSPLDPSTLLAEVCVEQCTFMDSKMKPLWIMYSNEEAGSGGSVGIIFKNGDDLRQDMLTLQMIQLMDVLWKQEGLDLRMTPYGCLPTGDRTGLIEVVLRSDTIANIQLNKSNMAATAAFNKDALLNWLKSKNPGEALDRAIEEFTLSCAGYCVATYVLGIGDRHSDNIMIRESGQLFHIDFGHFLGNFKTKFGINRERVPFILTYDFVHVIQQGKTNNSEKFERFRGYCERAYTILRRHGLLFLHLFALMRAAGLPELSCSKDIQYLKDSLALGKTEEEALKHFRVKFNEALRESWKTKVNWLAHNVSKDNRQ
- Method Summary: Enzymatic PI3K delta isoform inhibition (lipid kinase, Kinase-Glo luminescence)
- Assay type: biochemical
- Test Context: enzymatic assay
Test Readout: pIC50
Scale for pIC50: -log10 of concentration given in mol/L; no unit attached.

| Molecule | Measurement Target | pIC50 |
| --- | --- | --- |
| COc1ncc(N2CCc3ncnc(O[C@H]4CCN(C(=O)c5ccn(C)n5)C4)c3C2)cc1C#N | PI3K delta (Homo sapiens (Human)) | 7.51 |
| COc1ncc(N2CCc3ncnc(N[C@H]4CCN(C(=O)C5CCOC(C)(C)C5)C4)c3C2)cc1C(F)(F)F (stereo partly shown) | PI3K delta (Homo sapiens (Human)) | 8.52 |
| COc1ncc(N2CCc3ncnc(O[C@H]4CCN(C(=O)c5cn(C)nc5C)C4)c3C2)cc1C(F)(F)F | PI3K delta (Homo sapiens (Human)) | 7.54 |
| COc1ncc(N2CCc3ncnc(N[C@H]4CCN(C(=O)[C@H]5CC[C@H](O)CC5)C4)c3C2)cc1C(F)(F)F (single isomer, unassigned) | PI3K delta (Homo sapiens (Human)) | 8.15 |
| Nc1ncc(N2CCc3ncnc(O[C@H]4CCN(C(=O)C5CCOCC5)C4)c3C2)cc1C(F)(F)F | PI3K delta (Homo sapiens (Human)) | 7.60 |
| COc1ncc(N2CCc3ncnc(O[C@H]4CCN(C(=O)c5cn(C)cn5)C4)c3C2)cc1C(F)(F)F | PI3K delta (Homo sapiens (Human)) | 8.22 |

Next molecule, please.
What does the data say about its pIC50? Entry: `CCC(=O)N1CC[C@H](Oc2ncnc3c2CN(c2cnc(OC)c(C#N)c2)CC3)C1`
7.49

###

- Measurement Target: human phosphoinositide-3 kinase (PI3K) delta (Homo sapiens (Human))
- Sequence (O00329 whole entry): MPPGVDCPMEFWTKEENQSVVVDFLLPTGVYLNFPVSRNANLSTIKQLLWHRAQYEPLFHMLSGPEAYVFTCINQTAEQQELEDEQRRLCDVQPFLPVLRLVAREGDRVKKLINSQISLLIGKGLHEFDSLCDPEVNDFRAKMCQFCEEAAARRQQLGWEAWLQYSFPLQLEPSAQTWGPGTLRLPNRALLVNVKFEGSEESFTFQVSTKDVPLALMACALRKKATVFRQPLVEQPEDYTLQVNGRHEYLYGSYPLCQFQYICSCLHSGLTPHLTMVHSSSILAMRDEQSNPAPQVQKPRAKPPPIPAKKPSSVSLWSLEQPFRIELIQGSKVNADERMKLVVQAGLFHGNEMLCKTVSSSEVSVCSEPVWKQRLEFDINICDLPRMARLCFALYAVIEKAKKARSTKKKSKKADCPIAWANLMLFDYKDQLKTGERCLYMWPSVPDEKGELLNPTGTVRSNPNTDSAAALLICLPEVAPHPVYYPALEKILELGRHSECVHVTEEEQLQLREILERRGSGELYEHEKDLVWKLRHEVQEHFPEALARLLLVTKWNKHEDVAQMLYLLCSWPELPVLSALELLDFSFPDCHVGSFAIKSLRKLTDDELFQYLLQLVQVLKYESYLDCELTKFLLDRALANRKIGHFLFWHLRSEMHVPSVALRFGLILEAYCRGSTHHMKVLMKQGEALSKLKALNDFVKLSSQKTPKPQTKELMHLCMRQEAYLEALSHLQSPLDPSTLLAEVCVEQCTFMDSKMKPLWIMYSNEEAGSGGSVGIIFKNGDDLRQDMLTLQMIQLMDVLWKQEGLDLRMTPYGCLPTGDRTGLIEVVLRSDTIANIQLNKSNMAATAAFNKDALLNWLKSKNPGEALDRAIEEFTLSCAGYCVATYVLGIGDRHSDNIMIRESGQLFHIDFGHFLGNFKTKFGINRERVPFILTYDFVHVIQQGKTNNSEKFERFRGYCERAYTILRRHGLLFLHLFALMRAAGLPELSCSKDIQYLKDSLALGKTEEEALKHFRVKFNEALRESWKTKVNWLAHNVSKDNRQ
- Sequence (Q63787 whole entry partner): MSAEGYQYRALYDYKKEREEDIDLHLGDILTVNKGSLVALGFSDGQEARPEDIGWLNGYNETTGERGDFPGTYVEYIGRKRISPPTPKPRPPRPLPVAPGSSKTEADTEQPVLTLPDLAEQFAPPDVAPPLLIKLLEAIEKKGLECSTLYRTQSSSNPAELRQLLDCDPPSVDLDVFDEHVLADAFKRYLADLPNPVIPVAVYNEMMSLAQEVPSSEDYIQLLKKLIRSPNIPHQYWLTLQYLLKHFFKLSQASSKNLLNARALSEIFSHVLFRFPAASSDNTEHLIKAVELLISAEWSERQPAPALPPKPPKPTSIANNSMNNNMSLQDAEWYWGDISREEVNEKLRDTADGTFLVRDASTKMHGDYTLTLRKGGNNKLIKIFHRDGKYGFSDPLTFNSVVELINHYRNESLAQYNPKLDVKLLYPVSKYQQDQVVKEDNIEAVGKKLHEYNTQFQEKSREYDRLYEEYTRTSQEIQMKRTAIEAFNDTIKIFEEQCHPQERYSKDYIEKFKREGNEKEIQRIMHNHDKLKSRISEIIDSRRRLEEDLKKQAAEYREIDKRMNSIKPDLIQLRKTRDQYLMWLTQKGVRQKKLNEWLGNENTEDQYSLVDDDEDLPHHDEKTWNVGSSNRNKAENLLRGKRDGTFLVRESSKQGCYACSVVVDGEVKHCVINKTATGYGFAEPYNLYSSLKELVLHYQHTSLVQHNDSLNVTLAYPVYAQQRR
- Method Summary: PI3K-mediated Akt 1/2 (S473) phosphorylation in Rat-1 cells (AlphaScreen SureFire)
- Test Context: Rat-1 cells overexpressing myristoylated human PI3K delta, p-Akt (Ser473); read-out: Cell PI3Kδ/ IC50 [umol l − 1]
pIC50: −log10 of the molar value.
Binary classification by pIC50, with 7 as an inclusive lower bound for y; all other cases are n.

Below, 2 compounds whose answers are already recorded.
| Compound | Assigned Class |
| --- | --- |
| COc1ncc(N2CCc3ncnc(N[C@H]4CCN(C(=O)C5CCOCC5)C4)c3C2)cc1C(F)(F)F [Example 68] | y |
| CCC(=O)N1CC[C@H](Nc2ncnc3c2CN(c2cnc(OC)c(C)c2)CC3)C1 [Example 81] | n |

Please tell me: is the compound COc1ncc(N2CCc3ncnc(O[C@H]4CCN(C(=O)c5cn(C)cn5)C4)c3C2)cc1C [Example 20] at or over 7 in terms of pIC50?
n

Also check COc1ncc(N2CCc3ncnc(O[C@H]4CCN(C(=O)c5oc(C)nc5C)C4)c3C2)cc1C#N [Example 28]
n

###

- Measurement Target: PI3K alpha (Homo sapiens (Human), UniProt P42336)
- Sequence (P42336 other isoform, or with tags, fused parts or gaps): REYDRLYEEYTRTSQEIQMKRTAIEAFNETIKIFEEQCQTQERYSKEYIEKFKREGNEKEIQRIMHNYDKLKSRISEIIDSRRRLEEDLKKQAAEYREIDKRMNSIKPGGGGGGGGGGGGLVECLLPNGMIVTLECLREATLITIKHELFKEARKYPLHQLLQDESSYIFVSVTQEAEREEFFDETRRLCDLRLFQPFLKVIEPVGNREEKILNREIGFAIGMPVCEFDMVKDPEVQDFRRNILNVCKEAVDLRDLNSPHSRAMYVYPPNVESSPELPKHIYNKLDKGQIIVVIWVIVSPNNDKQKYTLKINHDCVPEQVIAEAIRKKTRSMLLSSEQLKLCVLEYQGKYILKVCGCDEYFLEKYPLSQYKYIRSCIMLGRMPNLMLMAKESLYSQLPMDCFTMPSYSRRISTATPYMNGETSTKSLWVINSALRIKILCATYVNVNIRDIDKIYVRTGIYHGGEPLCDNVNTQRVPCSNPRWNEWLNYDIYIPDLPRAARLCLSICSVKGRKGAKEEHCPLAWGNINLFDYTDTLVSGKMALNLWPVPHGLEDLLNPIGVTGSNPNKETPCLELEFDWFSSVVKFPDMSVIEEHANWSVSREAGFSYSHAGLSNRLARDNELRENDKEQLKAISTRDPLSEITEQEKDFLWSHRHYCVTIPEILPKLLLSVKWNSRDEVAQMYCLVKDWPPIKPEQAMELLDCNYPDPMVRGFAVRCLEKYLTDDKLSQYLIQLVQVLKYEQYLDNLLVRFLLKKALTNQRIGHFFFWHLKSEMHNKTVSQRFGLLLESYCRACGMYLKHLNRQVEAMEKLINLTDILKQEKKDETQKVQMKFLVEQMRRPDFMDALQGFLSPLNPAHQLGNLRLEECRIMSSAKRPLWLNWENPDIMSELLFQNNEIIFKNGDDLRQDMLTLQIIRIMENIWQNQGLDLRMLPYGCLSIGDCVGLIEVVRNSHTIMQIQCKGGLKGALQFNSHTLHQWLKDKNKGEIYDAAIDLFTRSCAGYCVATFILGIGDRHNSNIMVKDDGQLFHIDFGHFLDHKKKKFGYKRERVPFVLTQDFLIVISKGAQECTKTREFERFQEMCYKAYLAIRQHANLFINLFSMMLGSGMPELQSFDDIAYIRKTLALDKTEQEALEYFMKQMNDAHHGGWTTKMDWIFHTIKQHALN
- Method Summary: Enzymatic PI3K alpha isoform inhibition (lipid kinase, Kinase-Glo luminescence)
- Format: biochemical
- Test Context: enzymatic assay
Listed compounds paired with reported IC50
A complete answer gives the number and then names the unit.

Look over these answered cases.
| Compound | IC50 |
| --- | --- |
| O=C(C1CCOCC1)N1CC[C@H](Nc2ncnc3c2CN(c2cncc(C(F)(F)F)c2)CC3)C1 | 0.058 µM |
| COc1ncc(N2CCc3ncnc(O[C@H]4CCN(C(=O)C5CCC(=O)N5)C4)c3C2)cc1C(F)(F)F (stereo partly shown) | 0.803 µM |

Would you mind telling me what IC50 value was observed for `COc1ncc(N2CCc3ncnc(O[C@H]4CCN(c5ccccn5)C4)c3C2)cc1C(F)(F)F` ?
0.738 µM

What do you have for COc1cc(N2CCc3ncnc(O[C@H]4CCN(C(=O)C5CCOC(C)(C)C5)C4)c3C2)cnc1OC (stereo partly shown) ?
0.374 µM
